stated conditions: 1×PBS buffer (pH 7.4), 1.0% DMSO, 24-hour incubation at ambient temperature, maximum theoretical 100 μM; second value of the cell
quantity name: pH 7 solubility (μM)
A number alone suffices; assume μM.

INPUT: Requested field: pH 7 solubility. Item: CC(C)(C#Cc1ccc(-c2ccc(Cl)c3c(N(C(=O)N[C@@H](COC(=O)C(=O)O)C(=O)O)S(C)(=O)=O)nn(CC(F)(F)F)c23)c([C@H](Cc2cc(F)cc(F)c2)NC(=O)Cn2nc(C(F)(F)F)c3c2C(F)(F)[C@@H]2C[C@H]32)n1)S(C)(=O)=O [Compound 60]
OUTPUT: 14

---

stated conditions: 1×PBS buffer (pH 7.4), 1.0% DMSO, 24-hour incubation at ambient temperature, maximum theoretical 100 μM; second value of the cell
quantity name: pH 7 solubility (μM)

Illustrative cases are given below, each with its answer.
CC(C)(C#Cc1ccc(-c2ccc(Cl)c3c(N(C(=O)OC(CC(=O)O)CC(=O)O)S(C)(=O)=O)nn(CC(F)(F)F)c23)c([C@H](Cc2cc(F)cc(F)c2)NC(=O)Cn2nc(C(F)(F)F)c3c2C(F)(F)[C@@H]2C[C@H]32)n1)S(C)(=O)=O :: 68
CC(C)(C#Cc1ccc(-c2ccc(Cl)c3c(N(C(=O)C(=O)NCCP(=O)(O)O)S(C)(=O)=O)nn(CC(F)(F)F)c23)c([C@H](Cc2cc(F)cc(F)c2)NC(=O)Cn2nc(C(F)(F)F)c3c2C(F)(F)[C@@H]2C[C@H]32)n1)S(C)(=O)=O :: 36
CC(C)(C#Cc1ccc(-c2ccc(Cl)c3c(N(C(=O)NCCN4CCOCC4)S(C)(=O)=O)nn(CC(F)(F)F)c23)c([C@H](Cc2cc(F)cc(F)c2)NC(=O)Cn2nc(C(F)(F)F)c3c2C(F)(F)[C@@H]2C[C@H]32)n1)S(C)(=O)=O :: 5
C[C@@H](OP(=O)(O)O)[C@H](NC(=O)N(c1nn(CC(F)(F)F)c2c(-c3ccc(C#CC(C)(C)S(C)(=O)=O)nc3[C@H](Cc3cc(F)cc(F)c3)NC(=O)Cn3nc(C(F)(F)F)c4c3C(F)(F)[C@@H]3C[C@H]43)ccc(Cl)c12)S(C)(=O)=O)C(=O)O :: 14
CC(C)(C#Cc1ccc(-c2ccc(Cl)c3c(N(C(=O)NCCOP(=O)(O)O)S(C)(=O)=O)nn(CC(F)(F)F)c23)c([C@H](Cc2cc(F)cc(F)c2)NC(=O)Cn2nc(C(F)(F)F)c3c2C(F)(F)[C@@H]2C[C@H]32)n1)S(C)(=O)=O :: 17
CC(C)(C#Cc1ccc(-c2ccc(Cl)c3c(N(COC(=O)C(=O)O)S(C)(=O)=O)nn(CC(F)(F)F)c23)c([C@H](Cc2cc(F)cc(F)c2)NC(=O)Cn2nc(C(F)(F)F)c3c2C(F)(F)[C@@H]2C[C@H]32)n1)S(C)(=O)=O :: 100
CC(C)(C#Cc1ccc(-c2ccc(Cl)c3c(N(C(=O)NCCN4CCN(C(=N)N)CC4)S(C)(=O)=O)nn(CC(F)(F)F)c23)c([C@H](Cc2cc(F)cc(F)c2)NC(=O)Cn2nc(C(F)(F)F)c3c2C(F)(F)[C@@H]2C[C@H]32)n1)S(C)(=O)=O :: 24
CC(C)(C#Cc1ccc(-c2ccc(Cl)c3c(N(C(=O)NCCP(=O)(O)O)S(C)(=O)=O)nn(CC(F)(F)F)c23)c([C@H](Cc2cc(F)cc(F)c2)NC(=O)Cn2nc(C(F)(F)F)c3c2C(F)(F)[C@@H]2C[C@H]32)n1)S(C)(=O)=O :: 41

I = CN(CCC(=O)O)C(=O)N(c1nn(CC(F)(F)F)c2c(-c3ccc(C#CC(C)(C)S(C)(=O)=O)nc3[C@H](Cc3cc(F)cc(F)c3)NC(=O)Cn3nc(C(F)(F)F)c4c3C(F)(F)[C@@H]3C[C@H]43)ccc(Cl)c12)S(C)(=O)=O
II = CC(C)(C#Cc1ccc(-c2ccc(Cl)c3c(N(C(=O)CN4CCOCC4)S(C)(=O)=O)nn(CC(F)(F)F)c23)c([C@H](Cc2cc(F)cc(F)c2)NC(=O)Cn2nc(C(F)(F)F)c3c2C(F)(F)[C@@H]2C[C@H]32)n1)S(C)(=O)=O
INPUT: Lower value for measured pH 7 solubility? Options: I , II // return label of chosen record
OUTPUT: II

---

stated conditions: 0.1N HCl, 1.0% DMSO, 24-hour incubation at ambient temperature, maximum theoretical 100 μM; first value of the cell
quantity name: pH 2 solubility (μM)

C[C@@H](O)[C@H](NC(=O)N(c1nn(CC(F)(F)F)c2c(-c3ccc(C#CC(C)(C)S(C)(=O)=O)nc3[C@H](Cc3cc(F)cc(F)c3)NC(=O)Cn3nc(C(F)(F)F)c4c3C(F)(F)[C@@H]3C[C@H]43)ccc(Cl)c12)S(C)(=O)=O)C(=O)O :: 1

P = CC(C)(C#Cc1ccc(-c2ccc(Cl)c3c(N(C(=O)CN4CCNCC4)S(C)(=O)=O)nn(CC(F)(F)F)c23)c([C@H](Cc2cc(F)cc(F)c2)NC(=O)Cn2nc(C(F)(F)F)c3c2C(F)(F)[C@@H]2C[C@H]32)n1)S(C)(=O)=O
Q = CC(C)(C#Cc1ccc(-c2ccc(Cl)c3c(N(C(=O)N[C@](C)(CO)CC(=O)O)S(C)(=O)=O)nn(CC(F)(F)F)c23)c([C@H](Cc2cc(F)cc(F)c2)NC(=O)Cn2nc(C(F)(F)F)c3c2C(F)(F)[C@@H]2C[C@H]32)n1)S(C)(=O)=O
INPUT: Of the two listed items, P and Q , which carries the larger pH 2 solubility figure? // return label of chosen record
OUTPUT: P

---

stated conditions: 0.1N HCl, 1.0% DMSO, 24-hour incubation at ambient temperature, maximum theoretical 100 μM; first value of the cell
quantity name: pH 2 solubility (μM)

CC(C)(C#Cc1ccc(-c2ccc(Cl)c3c(N(C(=O)OCCCS(=O)(=O)O)S(C)(=O)=O)nn(CC(F)(F)F)c23)c([C@H](Cc2cc(F)cc(F)c2)NC(=O)Cn2nc(C(F)(F)F)c3c2C(F)(F)[C@@H]2C[C@H]32)n1)S(C)(=O)=O :: 33
CC(C)(C#Cc1ccc(-c2ccc(Cl)c3c(N(C(=O)CN4CCN(C(=N)N)CC4)S(C)(=O)=O)nn(CC(F)(F)F)c23)c([C@H](Cc2cc(F)cc(F)c2)NC(=O)Cn2nc(C(F)(F)F)c3c2C(F)(F)[C@@H]2C[C@H]32)n1)S(C)(=O)=O :: 57

a = CC(C)(C#Cc1ccc(-c2ccc(Cl)c3c(N(COC(=O)CN)S(C)(=O)=O)nn(CC(F)(F)F)c23)c([C@H](Cc2cc(F)cc(F)c2)NC(=O)Cn2nc(C(F)(F)F)c3c2C(F)(F)[C@@H]2C[C@H]32)n1)S(C)(=O)=O
b = CC(C)(C#Cc1ccc(-c2ccc(Cl)c3c(N(C(=O)C(=O)NCCP(=O)(O)O)S(C)(=O)=O)nn(CC(F)(F)F)c23)c([C@H](Cc2cc(F)cc(F)c2)NC(=O)Cn2nc(C(F)(F)F)c3c2C(F)(F)[C@@H]2C[C@H]32)n1)S(C)(=O)=O
INPUT: Lower value for measured pH 2 solubility? Options: a , b // return label of chosen record
OUTPUT: b
(b: 5 μM, a: 54 μM)

1 = CC(C)(C#Cc1ccc(-c2ccc(Cl)c3c(N(C(=O)OCOC(=O)/C=C/C(=O)O)S(C)(=O)=O)nn(CC(F)(F)F)c23)c([C@H](Cc2cc(F)cc(F)c2)NC(=O)Cn2nc(C(F)(F)F)c3c2C(F)(F)[C@@H]2C[C@H]32)n1)S(C)(=O)=O
2 = CC(C)(C#Cc1ccc(-c2ccc(Cl)c3c(N(C(=O)N(CCNC(=O)OCOP(=O)(O)O)CCC(=O)O)S(C)(=O)=O)nn(CC(F)(F)F)c23)c([C@H](Cc2cc(F)cc(F)c2)NC(=O)Cn2nc(C(F)(F)F)c3c2C(F)(F)[C@@H]2C[C@H]32)n1)S(C)(=O)=O
INPUT: Lower value for measured pH 2 solubility? Options: 1 , 2 // return label of chosen record
OUTPUT: 1

---

stated conditions: 1×PBS buffer (pH 7.4), 1.0% DMSO, 24-hour incubation at ambient temperature, maximum theoretical 100 μM; second value of the cell
quantity name: pH 7 solubility (μM)

A = C[C@H](O)CNC(=O)N(c1nn(CC(F)(F)F)c2c(-c3ccc(C#CC(C)(C)S(C)(=O)=O)nc3[C@H](Cc3cc(F)cc(F)c3)NC(=O)Cn3nc(C(F)(F)F)c4c3C(F)(F)[C@@H]3C[C@H]43)ccc(Cl)c12)S(C)(=O)=O [Compound 34]
B = CC(C)(C#Cc1ccc(-c2ccc(Cl)c3c(N(C(=O)N[C@H](CC(=O)O)C(=O)O)S(C)(=O)=O)nn(CC(F)(F)F)c23)c([C@H](Cc2cc(F)cc(F)c2)NC(=O)Cn2nc(C(F)(F)F)c3c2C(F)(F)[C@@H]2C[C@H]32)n1)S(C)(=O)=O [Compound 70]
INPUT: Lower value for measured pH 7 solubility? Options: A , B // return label of chosen record
OUTPUT: A
